Catalogue of GI50 readings, one per entry.
System: MCF7
assay remarks: NCI tumour cell line growth inhibition, 48 h
The source made the active and inactive calls. Rule as the data show it: active = GI50 up to about 1.1 µM and inactive = higher.

Look up and report measured GI50 for this entry: CCOC(C[Se]CC(OCC)OCC)OCC
48.3 µM (inactive)

State its GI50 for this molecule: C[C@@]1(O)C2C3CC4C5C3C1[C@](O)(C42)[C@H]5Br (stereo not given in full)
> 100 µM (inactive)

Dear colleague, please send me the reported GI50 for O=C1CSC2=NC3=C(COC/C3=C\c3ccc(Br)cc3)C(c3ccc(Br)cc3)N12 (stereo not given) when you can.
44.4 µM (inactive)

Give reported GI50 value for O=C(/C=C/c1ccccc1)Oc1cccc(Br)c1
20.5 µM (inactive)

Please supply the value of reported GI50 for the item C=C(CO)[C@H]1CC/C(C)=C/CC/C(C)=C/C/C=C(\C)[C@H](O)C1
26 µM (inactive)

----------
Test system: OVCAR-4
assay remarks: NCI tumour cell line growth inhibition, 48 h
Calls of active or inactive are those of the source. No stated cut-off is given here; in the data, active = GI50 up to about 1.1 µM and inactive = higher.
reported property: GI50

// solved cases for GI50 follow
- molecule: "CCC(C)COC(=O)c1ccc(/N=C\\c2ccc(/C=N/c3ccc(C(=O)OCC(C)CC)cc3)cc2)cc1 (stereo not given)"
  GI50: "> 100 µM (inactive)"
- molecule: "COc1cc2c(cc1OC)[C@@H](Nc1ccc(F)cc1)C1COC(=O)[C@@H]1C2c1cc(OC)c(O)c(OC)c1 (stereo not given in full)"
  GI50: "16.7 µM (inactive)"
- molecule: "C1=N\\CCOCC/N=C/c2ccccc2OCc2cccc(n2)COc2ccccc2/1"
  GI50: "6.03 µM (inactive)"

Look up GI50 of Clc1ccc(OCc2nn3c(CCc4nnc5sc(COc6ccc(Cl)cc6)nn45)nnc3s2)cc1 and report it.
14.7 µM (inactive)

Quick one: give measured GI50 for COc1ccc(C2C(C#N)=C(S)N(C3OC(COC(C)=O)C(OC(C)=O)C(OC(C)=O)C3OC(C)=O)C(c3ccccc3)=C2C(C)=O)cc1 (stereo not given)
> 100 µM (inactive)

Give the measured GI50 for COc1ccc(OCc2nc3cc(C(F)(F)F)ccc3nc2-c2ccccc2)cc1
> 100 µM (inactive)

// fetch GI50 given entry O=S(=O)(SC1=NCCN1)c1ccc2ccccc2c1
52.4 µM (inactive)

Report GI50 for NS(=O)(=O)c1ccc(NC(=O)COC(=O)c2cccc3c(=O)c4ccccc4[nH]c23)cc1
25.5 µM (inactive)

Look up and state reported GI50 for CC1(C)NC2C(=O)c3c([nH]c4ccccc34)[C@]3(C)CCC1CC23 (stereo not given in full)
60.8 µM (inactive)

Give the reported GI50 for this molecule. COC(=O)C1Cc2cc3c(cc2C1=O)CCCC3 (stereo not given)
64.9 µM (inactive)

Find the measured GI50 of N#CC1Cc2cc3c(cc21)OCO3 (stereo not given) and report it.
> 100 µM (inactive)

Look up and report measured GI50 for this entry: N#C/C(C(=O)CCl)=C1\Nc2ccccc2O1
1.49 µM (inactive)

Look up and state reported GI50 for COc1ccc(/C=N/Nc2nc3ccccc3c(=O)n2-c2ccccc2)c(OCc2ccccc2)c1
> 100 µM (inactive)

For the molecule O=C1c2ccccc2C(=O)[C@@]23O[C@@]12C1(Oc2cccc4cccc(c24)O1)[C@@H]1O[C@@H]1[C@@H]3O , give its measured GI50 value.
4.19 µM (inactive)

Answer with the recorded GI50 of Clc1ccc2c(c1)[nH]c1c2nc2sccn21 only.
> 100 µM (inactive)

Fill in reported GI50 for this entry: O=C1/C(=C/c2ccc(O)c([N+](=O)[O-])c2)CCC/C1=C\c1ccc(O)c([N+](=O)[O-])c1
18.9 µM (inactive)

Please give measured GI50 of the following entry: O=C(O)C1=NN(c2ccc(S(=O)(=O)O)cc2)C2(C1)C(Cl)C(=O)N2c1nc2ccccc2s1 (stereo not given)
16.4 µM (inactive)

Report GI50, nothing else, for this molecule: O=C(c1ccccn1)c1nnn2ccccc12
> 100 µM (inactive)

State its GI50 for this molecule: CC(C)(C)OC(=O)N1C(=O)OC[C@@H]2C=C[C@@H]21
> 100 µM (inactive)

// fetch GI50 given entry O=c1c2c3c(sc2nc(S)n1-c1ccccc1)CCCc1ccc([N+](=O)[O-])cc1-3
38.9 µM (inactive)

Answer with the recorded GI50 of Cc1cn(C2CC3C(COCN3O)O2)c(=O)[nH]c1=O (stereo not given) only.
> 100 µM (inactive)

Name the recorded GI50 of the item CCN(CC)CCOc1ccc(N2C(=O)c3cc(OC)c(OC)cc3C2=O)cc1 in your answer.
> 100 µM (inactive)

Report measured GI50; entry is COc1nc(-c2c[nH]c3ccccc23)cnc1N
29.6 µM (inactive)

Supply recorded GI50 for CC/C(CC(=O)CCC(=O)Nc1c(C)cccc1C)=N\NC(=O)NN here.
> 100 µM (inactive)

Give reported GI50 value for COc1cc2cc[n+](C)c(Cc3ccccc3)c2cc1OC
> 100 µM (inactive)
